Provenance of the data: the NIST ThermoML archive (doi:10.1016/j.tca.2009.01.008)

experiment: molar heat capacity at constant pressure; details: 343.15 K; 101.33 kPa; Liquid; Vacuum adiabatic calorimetry
Value Kind: molar heat capacity at constant pressure (J/K/mol)

Some solved entries appear below for comparison.
>  <Compound>
OCCOCCO

>  <Display Unit>
J/K/mol

>  <molar heat capacity at constant pressure>
263.8

$$$$
>  <Compound>
OCCCOCCCO

>  <Display Unit>
J/K/mol

>  <molar heat capacity at constant pressure>
355.8

$$$$

(a) OCCOCCOCCO
(b) CC(O)CO (centres undefined)
Ask | Would you mind telling me which has the lower recorded molar heat capacity at constant pressure between a and b ? Let me know the label of the one you choose.
Reply | b

---

assay: molar heat capacity at constant pressure; xn = mol fraction of the nth substance listed; conditions: 353.15 K; 101 kPa; Liquid; Vacuum adiabatic calorimetry; x1 = 0.6
Value Kind: molar heat capacity at constant pressure (J/K/mol)

Use the examples below as a reference point.
>  <Molecule>
OCCOCCO [diethylene glycol] + O

>  <Value Kind>
molar heat capacity at constant pressure

>  <Display Unit>
J/K/mol

>  <Endpoint Result>
201.2

$$$$
>  <Molecule>
OCCOCCOCCO [triethylene glycol] + O

>  <Value Kind>
molar heat capacity at constant pressure

>  <Display Unit>
J/K/mol

>  <Endpoint Result>
256.1

$$$$

(a) OCCCOCCCO [4-oxa-1,7-heptanediol] + O
(b) CC(O)CO (centres undefined) [1,2-propanediol] + O
Ask | I'm curious, which of these has a smaller molar heat capacity at constant pressure number: a or b ? Which one? Tell me its label.
Reply | b
(b: 169.9 J/K/mol, a: 256.3 J/K/mol)

---

test: molar heat capacity at constant pressure; xn = mol fraction of the nth substance listed; conditions: 303.15 K; 101 kPa; Liquid; Vacuum adiabatic calorimetry; x1 = 0.8
Value Kind: molar heat capacity at constant pressure (J/K/mol)

>  <Compound>
OCCOCCOCCO [triethylene glycol] + O

>  <Display Unit>
J/K/mol

>  <Endpoint Result>
288.3

$$$$
>  <Compound>
OCCOCCO [diethylene glycol] + O

>  <Display Unit>
J/K/mol

>  <Endpoint Result>
217.9

$$$$

(P) OCCCOCCCO [4-oxa-1,7-heptanediol] + O
(Q) CC(O)CO (centres undefined) [1,2-propanediol] + O
Ask | Which shows the larger molar heat capacity at constant pressure value: P or Q ? Use the label to indicate which entry you chose.
Reply | P

---

experiment: molar heat capacity at constant pressure; xn = mol fraction of the nth substance listed; settings: 323.15 K; 101 kPa; Liquid; Vacuum adiabatic calorimetry; x1 = 0.8
Value Kind: molar heat capacity at constant pressure (J/K/mol)

Please review the entries below; each comes with its answer.
>  <Compound>
OCCOCCO [diethylene glycol] + O

>  <molar heat capacity at constant pressure (J/K/mol)>
225

$$$$
>  <Compound>
OCCOCCOCCO [triethylene glycol] + O

>  <molar heat capacity at constant pressure (J/K/mol)>
295.7

$$$$

(P) OCCCOCCCO [4-oxa-1,7-heptanediol] + O
(Q) CC(O)CO (centres undefined) [1,2-propanediol] + O
Ask | Exercise: compare P and Q ; which one has the greater molar heat capacity at constant pressure? Answer by stating the label of the chosen item.
Reply | P

---

assay: molar heat capacity at constant pressure; conditions: 303.15 K; 101.33 kPa; Liquid; Vacuum adiabatic calorimetry
Value Kind: molar heat capacity at constant pressure (J/K/mol)

Examples with their reported molar heat capacity at constant pressure follow.
>  <Molecule>
OCCOCCO [diethylene glycol]

>  <Endpoint Result>
248.2

$$$$
>  <Molecule>
OCCCOCCCO [4-oxa-1,7-heptanediol]

>  <Endpoint Result>
329

$$$$

(A) CC(O)CO (centres undefined) [1,2-propanediol]
(B) OCCOCCOCCO [triethylene glycol]
Ask | Which one would you say has the larger molar heat capacity at constant pressure value: A , or B ? Kindly state the label of the option you pick.
Reply | B
